assay: Half life in BALB/c mouse at 0.2 mg/kg, iv by LC/MS/MS analysis; type: ADME, organism-based; design: dose 0.2 mg/kg, route intravenous; details: in vivo
readout.kind: half-life (min)
The figure you give is taken to be in min; do not add the unit.

Using known records, supply half-life for O=C(O)COc1ccc(Cl)cc1C#Cc1cccc(Cl)c1
18

----------
target: Prostaglandin D2 receptor 2 (Homo sapiens); assay: Displacement of [3H]PGD2 from human CRTH2 expressed in chinese hamster CHO cells by liquid scintillation counting
Sequence (Q9Y5Y4 whole entry): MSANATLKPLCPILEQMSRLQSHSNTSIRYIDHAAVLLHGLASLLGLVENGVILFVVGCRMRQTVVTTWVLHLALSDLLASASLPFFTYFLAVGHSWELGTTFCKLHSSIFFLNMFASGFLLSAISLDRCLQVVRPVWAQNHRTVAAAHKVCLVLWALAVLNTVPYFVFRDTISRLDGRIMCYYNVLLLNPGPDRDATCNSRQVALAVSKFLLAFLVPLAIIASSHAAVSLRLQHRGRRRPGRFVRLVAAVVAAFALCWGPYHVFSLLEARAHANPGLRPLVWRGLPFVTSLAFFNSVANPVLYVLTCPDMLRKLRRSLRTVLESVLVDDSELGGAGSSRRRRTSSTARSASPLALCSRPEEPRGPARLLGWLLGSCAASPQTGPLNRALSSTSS
Below is a list of entries, each paired with its recorded Ki value.
Numbers only; they are read as nM.

Previously resolved entries follow.
compound | assayed.system | value.observed
CC(C)c1ccc(S(C)(=O)=O)cc1C#Cc1cc(C#N)ccc1OCC(=O)O | Prostaglandin D2 receptor 2 (Homo sapiens) | 12
O=C(O)COc1ccc(Cl)cc1C#Cc1ccccc1C(F)(F)F | Prostaglandin D2 receptor 2 (Homo sapiens) | 24
COCc1ccc(F)c(C#Cc2cc(Cl)ccc2OCC(=O)O)c1 | Prostaglandin D2 receptor 2 (Homo sapiens) | 72
CN(C)C(=O)c1ccc(C#Cc2cc(Cl)ccc2OCC(=O)O)cc1 | Prostaglandin D2 receptor 2 (Homo sapiens) | 55

Write down Ki measured for item O=C(O)COc1ccc(Cl)cc1C#Cc1ccncc1
601

Supply reported Ki belonging to this compound: O=C(O)COc1ccc(Cl)cc1C#Cc1ccccc1F
47

Query Ki for CC1(O)c2ccc(C#Cc3cc(Cl)ccc3OCC(=O)O)cc2S(=O)(=O)C1(C)C (stereo not drawn)
28

Give recorded Ki. CCCS(=O)(=O)c1ccc(C)c(C#Cc2cc(Cl)ccc2OC(C)C(=O)O)c1 (stereo not drawn)
1.2

Reference for the values: ChEMBL document CHEMBL1914440
